Measured Ki by item
TARGET OF ASSAY: Adrenergic receptor alpha-1 (Homo sapiens, UniProt P35348+P25100+P35368)
PROTOCOL DETAILS: Inhibitory activity against Adrenergic alpha-1 receptor
Type: protein assay

| SMILES STRING | Ki (nM) |
| --- | --- |
| COc1ccc(-c2ccccc2)cc1N1CCN(CCn2cnc3sc4c(c3c2=O)CCN(C)C4)CC1 | 0.1 |
| CN1CCc2c(sc3ncn(CCN4CCN(c5cccc6c5OCC6)CC4)c(=O)c23)C1 | 0.2 |
| CN1CCc2c(sc3ncn(CCN4CCN(c5cccc6cccnc56)CC4)c(=O)c23)C1 | 1.2 |
| CN1CCc2c(sc3ncn(CCN4CCN(c5cccc6ccccc56)CC4)c(=O)c23)C1 | 13.2 |
| CN1CCc2c(sc3ncn(CCN4CCN(c5nccc6ccccc56)CC4)c(=O)c23)C1 | 41.1 |
| CN1CCc2c(sc3ncn(CCN4CCN(c5cccc6ccncc56)CC4)c(=O)c23)C1 | 1.2 |
| COc1ccc(C(F)(F)F)cc1N1CCN(CCn2cnc3sc4c(c3c2=O)CCN(C)C4)CC1 | 18 |
| CN1CCc2c(sc3ncn(CCN4CCN(c5cccc6ncccc56)CC4)c(=O)c23)C1 | 26.7 |
| CN1CCc2c(sc3ncn(CCN4CCN(c5cccc6ccsc56)CC4)c(=O)c23)C1 | 0.5 |

====

Measured Ki by item
TARGET OF ASSAY: 5-hydroxytryptamine receptor 1A (Homo sapiens, UniProt P08908)
Sequence (P08908 whole entry): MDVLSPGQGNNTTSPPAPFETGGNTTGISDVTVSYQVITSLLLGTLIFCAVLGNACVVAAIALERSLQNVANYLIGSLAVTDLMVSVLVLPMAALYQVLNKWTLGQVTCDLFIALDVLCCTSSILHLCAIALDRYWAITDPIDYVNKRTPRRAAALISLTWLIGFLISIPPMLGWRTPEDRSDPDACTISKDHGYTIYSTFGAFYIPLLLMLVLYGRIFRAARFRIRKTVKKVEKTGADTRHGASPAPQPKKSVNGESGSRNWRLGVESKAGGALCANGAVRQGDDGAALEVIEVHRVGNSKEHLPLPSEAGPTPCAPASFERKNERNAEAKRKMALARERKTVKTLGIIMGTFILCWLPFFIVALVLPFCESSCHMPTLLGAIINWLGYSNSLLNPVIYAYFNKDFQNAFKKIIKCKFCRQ
PROTOCOL DETAILS: Displacement of [35S]GTP-gamma-S from human recombinant 5HT1A receptor
OBSERVED PROPERTY: Ki (nM)

| SMILES STRING | MEASURED |
| --- | --- |
| CN1CCc2c(sc3ncn(CCN4CCN(c5ccnc6ccccc56)CC4)c(=O)c23)C1 | 6.5 |
| CN1CCc2c(sc3ncn(CCN4CCN(c5cccc6ccccc56)CC4)c(=O)c23)C1 | 0.7 |
| COc1ccc(Cl)cc1N1CCN(CCn2cnc3sc4c(c3c2=O)CCN(C)C4)CC1 | 3 |
| COc1c(Cl)cc(Cl)cc1N1CCN(CCn2cnc3sc4c(c3c2=O)CCN(C)C4)CC1 | 25.8 |
| CN1CCc2c(sc3ncn(CCN4CCN(c5cccc6ncccc56)CC4)c(=O)c23)C1 | 1.5 |
| CN1CCc2c(sc3ncn(CCN4CCN(c5nccc6ccccc56)CC4)c(=O)c23)C1 | 0.7 |
| CN1CCc2c(sc3ncn(CCN4CCN(c5ccccc5OCC(C)(C)C)CC4)c(=O)c23)C1 | 2.5 |
| CN1CCc2c(sc3ncn(CCN4CCN(c5cccc6cccnc56)CC4)c(=O)c23)C1 | 0.2 |
| COc1c(Cl)cccc1N1CCN(CCn2cnc3sc4c(c3c2=O)CCN(C)C4)CC1 | 2.5 |
| COc1ccc(OC)c(N2CCN(CCn3cnc4sc5c(c4c3=O)CCN(C)C5)CC2)c1 | 24.2 |
| CN1CCc2c(sc3ncn(CCN4CCN(c5ccccc5-c5ccccc5)CC4)c(=O)c23)C1 | 4.1 |
| CN1CCc2c(sc3ncn(CCN4CCN(c5ccccc5Cl)CC4)c(=O)c23)C1 | 2.8 |
| CN1CCc2c(sc3ncn(CCN4CCN(c5ncnc6ccccc56)CC4)c(=O)c23)C1 | 93.4 |
| CN1CCc2c(sc3ncn(CCN4CCN(c5cccc6ccncc56)CC4)c(=O)c23)C1 | 0.3 |
| COc1ccc(C(F)(F)F)cc1N1CCN(CCn2cnc3sc4c(c3c2=O)CCN(C)C4)CC1 | 104 |
| CN1CCc2c(sc3ncn(CCN4CCN(c5ccccc5Oc5ccccc5)CC4)c(=O)c23)C1 | 0.9 |
| CN1CCc2c(sc3ncn(CCN4CCN(c5cccc6ccsc56)CC4)c(=O)c23)C1 | 0.4 |
| COc1ccc2ccccc2c1N1CCN(CCn2cnc3sc4c(c3c2=O)CCN(C)C4)CC1 | 11.8 |
| CN1CCc2c(sc3ncn(CCN4CCN(c5cncc6ccccc56)CC4)c(=O)c23)C1 | 4.7 |
| Cc1ccccc1N1CCN(CCn2cnc3sc4c(c3c2=O)CCN(C)C4)CC1 | 2.9 |
| COc1cc(Cl)c(Cl)cc1N1CCN(CCn2cnc3sc4c(c3c2=O)CCN(C)C4)CC1 | 2.5 |
| COc1ccc(C)cc1N1CCN(CCn2cnc3sc4c(c3c2=O)CCN(C)C4)CC1 | 5.6 |
